assay: Metabolic stability in dog liver microsomes assessed as half life preincubated for 5 mins followed by NADPH addition and measured upto 45 mins by LC-MS analysis; assay type: ADME, Canis lupus familiaris, Microsome; conditions: time < 50 min
half-life listing for selected compounds.
Please reply with the bare figure in min and do not write the unit itself.

INSERT INTO assay_data (record_smiles, unit_symbol, reported_result) VALUES
  ('CC(C)(C)c1ccc(C(=O)NC(=S)Nc2ccc(NC(=O)c3ccc(C(C)(C)C)cc3)cc2)cc1', 'min', 62.7);

# evaluate next
Query block: Output measured half-life for this item: O=C(c1ccc(F)cc1)C1CCN(CCn2c(=O)[nH]c3ccccc3c2=O)CC1
Result block: 48.5

---

assay: Metabolic stability in mouse liver microsomes assessed as intrinsic clearance preincubated for 5 mins followed by NADPH addition and measured upto 45 mins by LC-MS analysis; type: ADME, Microsome; details: time < 50 min, read-out: CLH
observation type: CLint scaled (mL/min/kg)
Please reply with the bare figure in mL/min/kg and do not write the unit itself.

INSERT INTO results (record_smiles, unit_symbol, reported_result) VALUES
  ('CC(C)(C)c1ccc(C(=O)NC(=S)Nc2ccc(NC(=O)c3ccc(C(C)(C)C)cc3)cc2)cc1', 'mL/min/kg', 102);

# evaluate next
Query block: Output measured CLint scaled for this item: O=C(c1ccc(F)cc1)C1CCN(CCn2c(=O)[nH]c3ccccc3c2=O)CC1
Result block: 293

---

assay: Metabolic stability in human liver microsomes assessed as half life preincubated for 5 mins followed by NADPH addition and measured upto 45 mins by LC-MS analysis; type: ADME, Microsome; details: time < 50 min
half-life listing for selected compounds.
Please reply with the bare figure in min and do not write the unit itself.

INSERT INTO assay_data (record_smiles, reported_result) VALUES
  ('CC(C)(C)c1ccc(C(=O)NC(=S)Nc2ccc(NC(=O)c3ccc(C(C)(C)C)cc3)cc2)cc1', 76.7);

# evaluate next
Query block: Output measured half-life for this item: O=C(c1ccc(F)cc1)C1CCN(CCn2c(=O)[nH]c3ccccc3c2=O)CC1
Result block: 37.2

---

CLhep predicted listing for selected compounds.
test: Metabolic stability in dog liver microsomes assessed as hepatic clearance preincubated for 5 mins followed by NADPH addition and measured upto 45 mins by LC-MS analysis; type: ADME, Canis lupus familiaris, Microsome; settings: time < 50 min
Please reply with the bare figure in L/h/kg and do not write the unit itself.

INSERT INTO assay_data (record_smiles, observation_type, reported_result) VALUES
  ('CC(C)(C)c1ccc(C(=O)NC(=S)Nc2ccc(NC(=O)c3ccc(C(C)(C)C)cc3)cc2)cc1', 'CLhep predicted', 1.19);

# evaluate next
Query block: Output measured CLhep predicted for this item: O=C(c1ccc(F)cc1)C1CCN(CCn2c(=O)[nH]c3ccccc3c2=O)CC1
Result block: 1.29

---

half-life listing for selected compounds.
test: Metabolic stability in mouse liver microsomes assessed as half life preincubated for 5 mins followed by NADPH addition and measured upto 45 mins by LC-MS analysis; type: ADME, Microsome; settings: time < 50 min
Please reply with the bare figure in min and do not write the unit itself.

INSERT INTO results (compound, reported_result) VALUES
  ('CC(C)(C)c1ccc(C(=O)NC(=S)Nc2ccc(NC(=O)c3ccc(C(C)(C)C)cc3)cc2)cc1', 53.5);

# evaluate next
Query block: Output measured half-life for this item: O=C(c1ccc(F)cc1)C1CCN(CCn2c(=O)[nH]c3ccccc3c2=O)CC1 [KETANSERIN]
Result block: 18.6

---

assay: Cytotoxicity against MDCK cells by CCK-8 assay; type: toxicity, cell-based, Canis lupus familiaris; details: dog
CC50 under 70 µM gets true, anything at or over 70 µM gets false.

INSERT INTO measurements (record_smiles, label) VALUES
  ('Cc1ccc(NC(=S)NC(=O)c2ccc(C(C)(C)C)cc2)c(C)c1', 'false'),
  ('CC(C)(C)c1ccc(C(=O)NC(=S)Nc2ccc(O)cc2)cc1', 'false'),
  ('CC(=O)Nc1ccc(NC(=S)NC(=O)c2ccc(C(C)(C)C)cc2)cc1', 'true'),
  ('CC(C)(C)c1ccc(C(=O)NC(=O)Nc2ccccc2F)cc1', 'false'),
  ('CC(C)(C)C(=O)Nc1ccc(NC(=S)NC(=O)c2ccc(C(C)(C)C)cc2)cc1', 'false');

Query block: Lab note: CC50 threshold 70 µM. Does this molecule come in strictly under it? CC(C)(C)c1ccc(C(=O)NC(=S)Nc2c(Cl)cc(Cl)cc2Cl)cc1
Result block: false

Query block: Lab note: CC50 threshold 70 µM. Does this molecule come in strictly under it? CCCCc1ccc(C(=O)Nc2ccc(NC(=S)NC(=O)c3ccc(C(C)(C)C)cc3)cc2)cc1
Result block: false

Query block: Lab note: CC50 threshold 70 µM. Does this molecule come in strictly under it? CC(C)(C)c1ccc(C(=O)NC(=S)Nc2ccc(F)cc2)cc1
Result block: false

Query block: Lab note: CC50 threshold 70 µM. Does this molecule come in strictly under it? CC(C)(C)c1ccc(C(=O)NC(=S)Nc2ccccc2Cl)cc1
Result block: true

Query block: Lab note: CC50 threshold 70 µM. Does this molecule come in strictly under it? Cc1ccccc1NC(=S)NC(=O)c1ccc(C(C)(C)C)cc1
Result block: false

Query block: Lab note: CC50 threshold 70 µM. Does this molecule come in strictly under it? CC(C)(C)c1ccc(C(=O)NC(=S)Nc2ccccn2)cc1
Result block: false

Query block: Lab note: CC50 threshold 70 µM. Does this molecule come in strictly under it? CC(=O)N[C@H]1[C@H]([C@H](O)[C@H](O)CO)OC(C(=O)O)=C[C@@H]1N=C(N)N
Result block: false

Query block: Lab note: CC50 threshold 70 µM. Does this molecule come in strictly under it? CC(C)(C)c1ccc(C(=O)NC(=S)Nc2ccc3ccccc3n2)cc1
Result block: false

---

hepatic extraction ratio at 0.75 h listing for selected compounds.
assay: Metabolic stability in human liver microsomes assessed as hepatic extraction ratio preincubated for 5 mins followed by NADPH addition and measured upto 45 mins by LC-MS analysis; assay type: ADME, Microsome; conditions: time < 50 min
Please reply with the bare figure in % and do not write the unit itself.

INSERT INTO results (compound, observation_type, reported_result) VALUES
  ('O=C(c1ccc(F)cc1)C1CCN(CCn2c(=O)[nH]c3ccccc3c2=O)CC1 [KETANSERIN]', 'hepatic extraction ratio at 0.75 h', 69.3);

# evaluate next
Query block: Output measured hepatic extraction ratio at 0.75 h for this item: CC(C)(C)c1ccc(C(=O)NC(=S)Nc2ccc(NC(=O)c3ccc(C(C)(C)C)cc3)cc2)cc1
Result block: 52.3

---

assay: Cmax in Sprague-Dawley rat at 10 mg/kg, po measured up to 24 hrs by LC-MS analysis; format: ADME, organism-based; conditions: in vivo
observation type: Cmax (ng/mL)
Please reply with the bare figure in ng/mL and do not write the unit itself.

Below are worked cases with known answers.
INSERT INTO results (record_smiles, observation_type, reported_result) VALUES
  ('CCC(=O)Nc1ccc(NC(=S)NC(=O)c2ccc(C(C)(C)C)cc2)cc1', 'Cmax', 13),
  ('CC(C)(C)c1ccc(C(=O)NC(=S)Nc2ccc(NC(=O)c3ccc(C(C)(C)C)cc3)cc2)cc1', 'Cmax', 1180);

# evaluate next
Query block: Output measured Cmax for this item: CC(C)(C)c1ccc(C(=O)NC(=S)Nc2ccc(O)cc2)cc1
Result block: 12.8

---

test: Metabolic stability in mouse liver microsomes assessed as hepatic extraction ratio preincubated for 5 mins followed by NADPH addition and measured upto 45 mins by LC-MS analysis; type: ADME, Microsome; conditions: time < 50 min
observation type: hepatic extraction ratio at 0.75 h (%)
Please reply with the bare figure in % and do not write the unit itself.

INSERT INTO measurements (record_smiles, reported_result) VALUES
  ('CC(C)(C)c1ccc(C(=O)NC(=S)Nc2ccc(NC(=O)c3ccc(C(C)(C)C)cc3)cc2)cc1', 53.1);

# evaluate next
Query block: Output measured hepatic extraction ratio at 0.75 h for this item: O=C(c1ccc(F)cc1)C1CCN(CCn2c(=O)[nH]c3ccccc3c2=O)CC1
Result block: 76.5

---

assay: AUC(0 to t) in Sprague-Dawley rat at 10 mg/kg, po measured up to 24 hrs by LC-MS analysis; assay type: ADME, organism-based; conditions: in vivo
AUC(0-t) at 24 h listing for selected compounds.
Please reply with the bare figure in ng·h/mL and do not write the unit itself.

Below are worked cases with known answers.
INSERT INTO assay_data (record_smiles, observation_type, reported_result) VALUES
  ('CC(C)(C)c1ccc(C(=O)NC(=S)Nc2ccc(NC(=O)c3ccc(C(C)(C)C)cc3)cc2)cc1', 'AUC(0-t) at 24 h', 5420),
  ('CCC(=O)Nc1ccc(NC(=S)NC(=O)c2ccc(C(C)(C)C)cc2)cc1', 'AUC(0-t) at 24 h', 34);

# evaluate next
Query block: Output measured AUC(0-t) at 24 h for this item: CC(C)(C)c1ccc(C(=O)NC(=S)Nc2ccc(O)cc2)cc1
Result block: 44.3
